# Tested on: LOC_OS01G57100-cb003
# testDetails: thermal shift delta Tm vs DMSO control; higher = stronger stabilization (binding);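 further: purified Escherichia coli-expressed rice kinase domain construct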
# testConditions: 12.5 µM; protein concentration 2 µM
Structures can show the parent of a compound that is named as a salt.
endpointName: thermal shift delta Tm (°C)
Answer with a number only, understood to be in °C.

Here's what some known entries look like.
INSERT INTO measurements (molecule, quantitativereadout) VALUES
  ('CN(c1ccccc1CNc1nc(Nc2ccc3c(c2)CC(=O)N3)ncc1C(F)(F)F)S(C)(=O)=O', 2.5),
  ('Cc1cc(CS(=O)(=O)c2ccccc2)cc(OCc2ccc(CN3CCC[C@@H]3CO)cc2)c1', 0.61),
  ('C[C@H](NC(=O)/C(C#N)=C/c1cccc(Br)n1)c1ccccc1', 2.09),
  ('O=C(Nc1nc2cccc(-c3ccc(CN4CCS(=O)(=O)CC4)cc3)n2n1)C1CC1', 1.32),
  ('CCN1CCN(Cc2ccc(Nc3ncc(F)c(-c4cc(F)c5nc(C)n(C(C)C)c5c4)n3)nc2)CC1', -0.28),
  ('CCc1nc(C(N)=O)c(Nc2ccc(N3CCC(N4CCN(C)CC4)CC3)c(OC)c2)nc1NC1CCOCC1', 4.25),
  ('CCn1nc(C2CCN(C(=O)CCO)CC2)nc1-c1cnc(N)c(-c2nnc(C(C)(C)C)o2)n1', 0.59);

Please examine the following record next.
// query Please look at this molecule and report its thermal shift delta Tm: Cc1cc(O)c(-c2ccc([C@@H](C)CN)cc2)c2c1[nH]c(=O)c1sccc12 [OTS514 hydrochloride]
// result -0.04

###

# Tested on: LOC_OS01G01410-cb001
# testDetails: thermal shift delta Tm vs DMSO control; higher = stronger stabilization (binding)
# testConditions: 12.5 µM; protein concentration 2 µM
endpointName: thermal shift delta Tm (°C)
Just the number please, in °C, no unit attached.

INSERT INTO measurements (molecule, quantitativereadout) VALUES
  ('CNC(=O)c1ccccc1Nc1cc(Nc2ccc(N3CCOCC3)cc2OC)ncc1C(F)(F)F', 0.48),
  ('CC(C)(CO)n1cc(C(=O)c2cncc(NC(=O)Cc3ccc(Cl)cn3)c2)c2cnc(N)nc21', 0.23),
  ('C[C@H](CN(C)C)Oc1nc(Nc2cc3cccc(Cl)c3cn2)cnc1C#N', 0.28);

// query Please give measured thermal shift delta Tm of the following entry: O=C(O[C@@H]1Cc2c(O)cc(O)cc2O[C@@H]1c1cc(O)c(O)c(O)c1)c1cc(O)c(O)c(O)c1 [(-)-Epigallocatechin Gallate]
// result 0.41

// query Provide one value: measured thermal shift delta Tm of CNC(=O)c1ccccc1Sc1ccc2c(/C=C/c3ccccn3)n[nH]c2c1 [Axitinib]
// result 2

###

# System: LOC_OS01G10900-cb004
# testDetails: thermal shift delta Tm vs DMSO control; higher = stronger stabilization (binding)
# testConditions: 12.5 µM; protein concentration 2 µM
Would you mind labelling by thermal shift delta Tm? At or over 1 °C is 1, under is 0.

Reference set, count: 8
INSERT INTO results (compound, testedon, label) VALUES
  ('O=C1NC(=O)/C(=C/c2ccc3c(c2)OC(F)(F)O3)S1', 'LOC_OS01G10900-cb004', 0),
  ('O=C(NOCC(O)CO)c1cc(Br)c(F)c(F)c1Nc1ccc(I)cc1F (centres undefined)', 'LOC_OS01G10900-cb004', 1),
  ('C[C@@H]1COCCN1c1cc(C2([S@](C)(=N)=O)CC2)nc(-c2cc[nH]c3nccc2-3)n1', 'LOC_OS01G10900-cb004', 0),
  ('Cc1nc(-c2cn3c(n2)-c2ccc(-c4cnn(C(C)(C)C(N)=O)c4)cc2OCC3)n(C(C)C)n1', 'LOC_OS01G10900-cb004', 0),
  ('Cc1cccc(Nc2nc(NC3CCCCC3N)ncc2C(N)=O)c1 (centres undefined)', 'LOC_OS01G10900-cb004', 0),
  ('Oc1c2ccccc2c2c3c(cccc13)N=N2', 'LOC_OS01G10900-cb004', 1),
  ('O=C(O[C@@H]1Cc2c(O)cc(O)cc2O[C@@H]1c1cc(O)c(O)c(O)c1)c1cc(O)c(O)c(O)c1 [(-)-Epigallocatechin Gallate]', 'LOC_OS01G10900-cb004', 0),
  ('O=C1NC(=O)/C(=C/c2ccc(-c3ccc(F)cc3O)o2)S1', 'LOC_OS01G10900-cb004', 1);

Note: attention shifts to another entry.
// query Please check the record COc1ccc(/C=C/C(=O)C2(C(=O)/C=C/c3ccc(OC)c(OC)c3)CCCCC2)cc1OC and state if its thermal shift delta Tm is at or above 1 °C.
// result 1

###

# Test system: LOC_OS01G60700-cb002
# testDetails: thermal shift delta Tm vs DMSO control; higher = stronger stabilization (binding)
# testConditions: 12.5 µM; protein concentration 2 µM
Items are presented alongside their recorded thermal shift delta Tm.
Please reply with the bare figure in °C and do not write the unit itself.

// below: answered compounds
INSERT INTO measurements (compound, quantitativereadout) VALUES
  ('Cc1nc2c(-c3cnc(N)nc3)nc(N3CCOCC3)nc2n1C(C)C', 1.66),
  ('N#Cc1cnc(Nc2cc(NC[C@H]3CNCCO3)c(C(F)(F)F)cn2)cn1', 1.23);

As a next step, examine the compound that follows.
// query Hello, please tell me recorded thermal shift delta Tm for this one: C[C@@H]1COCCN1c1cc(=O)n2c(n1)N(Cc1cncc(Cl)c1)[C@H](C(F)(F)F)CC2
// result 1.05

###

# Test system: LOC_OS01G14860-cb001
# testDetails: thermal shift delta Tm vs DMSO control; higher = stronger stabilization (binding)
# testConditions: 12.5 µM; protein concentration 2 µM
Reported thermal shift delta Tm values are given for each entry in this list.
Report the value in °C with no unit label.

INSERT INTO measurements (smilesdata, endpointname, quantitativereadout) VALUES
  ('COC(=O)[C@]12CCC(C)(C)C[C@H]1[C@H]1C(=O)C=C3[C@@]4(C)C=C(C#N)C(=O)C(C)(C)[C@@H]4CC[C@@]3(C)[C@]1(C)CC2', 'thermal shift delta Tm', -4.11);

// query Annotate the molecule N#Cc1ccc2ncnc(NCCc3ccccc3)c2c1 with its measured thermal shift delta Tm.
// result 0.78

// query Complete the entry with thermal shift delta Tm for COC(=O)Nc1ccc(-c2nc(N3CCOCC3)c3cnn(C4CCN(C(=O)OC)CC4)c3n2)cc1
// result 0.21

// query Quick one: give measured thermal shift delta Tm for CCS(=O)(=O)Nc1ccc2c(c1)/C(=C(/Nc1ccc(CN3CCCCC3)cc1)c1ccccc1)C(=O)N2
// result 4.63

###

# System: LOC_OS03G12390-cb001
# testDetails: thermal shift delta Tm vs DMSO control; higher = stronger stabilization (binding)
# testConditions: 12.5 µM; protein concentration 2 µM
Structures can show the parent of a compound that is named as a salt.
Recorded thermal shift delta Tm, one value per entry.
Field: numeric (°C). Do not append units.

Here is how some compounds turned out for thermal shift delta Tm.
INSERT INTO results (compound, endpointname, unitannotation, quantitativereadout) VALUES
  ('CCN(CC)CCNC(=O)c1c(C)[nH]c(/C=C2\C(=O)Nc3ccc(F)cc32)c1C [Sunitinib Malate]', 'thermal shift delta Tm', '°C', 7.66),
  ('CCCCCCCCc1ccc(CCC(N)(CO)CO)cc1 [Fingolimod (FTY720) HCl]', 'thermal shift delta Tm', '°C', -1.7),
  ('O=C1c2c(O)cc(O)cc2OC(c2ccc(O)c(O)c2)C1O (configuration not stated) [Taxifolin (Dihydroquercetin)]', 'thermal shift delta Tm', '°C', 0.47);

// query Note down thermal shift delta Tm recorded for C[C@H](Nc1ncnc2[nH]cnc12)c1cc2ccc(F)cc2nc1-c1ccccn1
// result 0.1

// query For the compound Cc1ccc(C(=O)Nc2cccc(C(F)(F)F)c2)cc1Nc1nc(-c2cccnc2)nc2c1cnn2C , give its reported thermal shift delta Tm.
// result 1.07

// query Consider the compound Cc1nc(Nc2cnn(C3CCNCC3)c2)nc2c1N(C)C(=O)c1cc3ccccc3cc1N2C and give its recorded thermal shift delta Tm.
// result 1.89

// query Return value of thermal shift delta Tm for input FC(F)(F)c1ccc(Nc2nc3ccc(Oc4ccnc(-c5ncc(C(F)(F)F)[nH]5)c4)cc3[nH]2)cc1 , no commentary.
// result 1.89

// query Tell us which thermal shift delta Tm value is on record for CCc1nc(C(N)=O)c(Nc2ccc(N3CCC(N4CCN(C)CC4)CC3)c(OC)c2)nc1NC1CCOCC1
// result 9.74

// query Please give measured thermal shift delta Tm of the following entry: CC(C)S(=O)(=O)c1ccc2nccc(Nc3ccc4scnc4c3)c2c1
// result 0.9

// query Retrieve thermal shift delta Tm measured for Cc1c(NC(=O)OC[C@@H]2COCCN2)cn2ncnc(Nc3ccc4c(cnn4Cc4cccc(F)c4)c3)c12 and print it.
// result 0.69

// query Please look at this compound and report its thermal shift delta Tm: Nc1ccc(-c2ccc3ncc4ccc(=O)n(-c5cccc(C(F)(F)F)c5)c4c3c2)cn1
// result 0.23

// query Determine its reported thermal shift delta Tm: O=C(NCc1ccccc1)c1csc(Nc2ccncn2)n1
// result 1.49

// query Report thermal shift delta Tm for COc1ccc(F)c(F)c1C(=O)c1cnc(NC2CCN(S(C)(=O)=O)CC2)nc1N
// result -0.05

// query Identify thermal shift delta Tm associated with the compound Cc1cccc(CC(=O)N2CCc3c2ccc(-c2cn(C)c4ncnc(N)c24)c3F)n1
// result 0.44

// query Indicate its recorded thermal shift delta Tm; the compound in question is COc1cc2c(c(OC)c1OC)-c1c(cc3c(c1OC)OCO3)CC(C)C(C)C2 (configuration not stated) [Schisandrin B (Sch B)]
// result 0.12

// query Look up and report measured thermal shift delta Tm for this entry: CN1C(=O)[C@@H](NC(=O)c2n[nH]c(Cc3ccccc3)n2)COc2ccccc21
// result 0.81

// query For the compound O=C(c1ccc(Nc2nccc(-c3cc4ccccc4s3)n2)cc1)N1CCC(N2CCCC2)CC1 , give its reported thermal shift delta Tm.
// result 2.55
